System: MCF-7 cell line
assay-info: Cytotoxic screening using MTT assay, MCF-7
Assay type: cell-based
reported-conditions: Homo sapiens, MCF7, 48 h, read-out: IC50 (μM) MCF-7, MTT assay, 48 h treatment
IC50 overview
assay-endpoint: IC50

- O=c1[nH]ncc2c1[nH]c1ccccc12: 9.43 µM
- NNC(=O)Cn1c2ccccc2c2cn[nH]c(=O)c21: 4.24 µM
- C=CCn1ncc2c3ccccc3n(CC=C)c2c1=O: 17 µM
- O=c1[nH]ncc2c3ccccc3n(Cc3ccccc3)c12: 29.5 µM
- C=CCn1c2ccccc2c2cn[nH]c(=O)c21: > 50 µM
- CCOC(=O)Cn1c2ccccc2c2cn[nH]c(=O)c21: 12.4 µM
- CCOC(=O)Cn1ncc2c3ccccc3n(CC(=O)OCC)c2c1=O: 9.07 µM
- O=c1c2c(cnn1Cc1ccccc1)c1ccccc1n2Cc1ccccc1: > 50 µM
